Origin of the recorded values: the Deep4Chem optical property database

experiment: photoluminescence quantum yield (fraction); solvent given as SMILES
condition summary: in CO
metric name: photoluminescence quantum yield
Write the number on its own, no unit after it.

Recorded photoluminescence quantum yield, per entry:
| molecule | endpoint result |
| --- | --- |
| COc1ccc(/C=C/C=C/C=C/c2ccc([N+](=O)[O-])cc2)cc1 | 0.002 |
| COc1ccc(C2=C3C(C)=CC(C)=[N+]3[B-](F)(F)n3c(/C=C/c4ccc(N(C)C)cc4)cc(C)c32)cc1 | 0.16 |
| Cc1ccc(C2=C3C=CC(Cl)=[N+]3[B-](F)(F)n3c(Cl)ccc32)cc1 | 0.27 |
| CCOC(=O)COc1ccc(/C=C/C2=C3c4ccccc4C(c4[nH]c(C)cc4C)=[N+]3[B-](F)(F)n3c(C)cc(C)c32)cc1 | 0.002 |
| COC(=O)c1nc2c(N(C)C)nc(N(C)C)nc2n1Cc1ccccc1 | 0.66 |
| C(=C\c1nc2ccccc2[nH]1)/c1ccc(-c2nc3c4cccnc4c4ncccc4c3[nH]2)cc1 | 0.09 |
| CCN(CC)c1ccc2cc(/C=C/C(O)=C/C(C)=O)c(=O)oc2c1 | 0.35 |
| CC(=O)Nc1ccc(O)cc1 | 0.0037 |

**Query** For COC1(OC)C2(Cl)c3nc4cc(-c5cccs5)ccc4nc3C1(Cl)C1C[C@H]3[C@@H](CC12)C1(Cl)c2nc4ccc(-c5cccs5)cc4nc2C3(Cl)C1(OC)OC (some centres not stated) , what is its reported photoluminescence quantum yield?
**Result** 0.49

**Query** For `CC(C)(C)c1ccc2c(c1)c1cc(C(C)(C)C)ccc1n2-c1ccc(C#Cc2ccc(C#Cc3ccc(-n4c5ccc(C(C)(C)C)cc5c5cc(C(C)(C)C)ccc54)cc3)cc2)cc1` , what is its reported photoluminescence quantum yield?
**Result** 0.41

**Query** For `Cc1nc2c(c[n+]1C)CN1C(=O)N([C@H]3O[C@@H](CO)[C@H](O)[C@@H]3O)C=CC1=N2` , what is its reported photoluminescence quantum yield?
**Result** 0.14

**Query** For `Nc1ccc2c(c1)C(=O)N(C13C[C@H]4C[C@@H](C1)C[C@@H](C3)C4)C2=O` , what is its reported photoluminescence quantum yield?
**Result** 0.17
